Each entry below lists one item and its recorded AC50 value.
- System: HTT mRNA
- experiment notes: Splicing RT-qPCR assay, canonical (CJ) and alternative (AJ) junction mRNA, K562 cells
- Format: cell-based
- run parameters: Homo sapiens, K562.3 cells, 24 hours, read-out: HTT AJ (AC50, increase in AJ mRNA)

Sample answers from the record:
molecule	AC50
CNC12CC(C1)N(c1ccc(C(=O)Nc3cc(F)c4nc(C)cn4c3)c3nn(C)cc13)C2	1 to 10 µM
Cc1cn2cc(NS(=O)(=O)c3ccc(N4C[C@@H](C)N[C@@H](C)C4)c4cn(C)nc34)cc(F)c2n1	> 10 µM
Cc1cn2cc(NC(=O)c3ccc(N4CCC5NCCCC54)c4cn(C)nc34)cc(F)c2n1 (centres unmarked)	1 to 10 µM

In: Provide one value: measured AC50 of `Cc1cn2cc(C(=O)Nc3c(F)cc(N4CCNCC4)c4cn[nH]c34)cc(F)c2n1`
Out: > 10 µM

In: Provide one value: measured AC50 of `Cc1cn2cc(NC(=O)c3ccc(N4C[C@@H](C)N[C@@H](C)C4)c4[nH]cnc34)cc(F)c2n1`
Out: > 10 µM

In: Provide one value: measured AC50 of `CCNC12CC(C1)N(c1ccc(C(=O)Nc3cc(F)c4nc(C)cn4c3)c3nn(C)cc13)C2`
Out: 1 to 10 µM

In: Provide one value: measured AC50 of Cc1cn2cc(NC(=O)c3ccc(N4CCNCC4=O)c4cn(C)nc34)cc(F)c2n1 [Compound 251, 2,2,2-trifluoroacetate]
Out: > 10 µM

In: Provide one value: measured AC50 of `CO[C@H]1C[C@H](N[C@H]2CCN(c3ccc(C(=O)Nc4cc(F)c5nc(C)cn5c4)c4nn(C)cc34)C2)C1`
Out: 1 to 10 µM

----------
- Tested on: MYB mRNA
- experiment notes: Gene panel canonical junction qPCR assay, decrease in CJ mRNA, Table 3
- Type: cell-based
- run parameters: decrease in canonical junction (CJ) mRNA, gene panel qPCR, Table 3
pIC50: −log10 of the molar value.
readout label: pIC50

Sample answers from the record:
molecule	experimental system	value reported
CCNC1CCN(c2ccc(C(=O)Nc3cc(Oc4cccc(C)c4)c4nc(C)cn4c3)c3nn(C)cc23)CC1	MYB mRNA	6.00 to 7.00
Cc1cn2cc(NC(=O)c3c(F)cc(N4CCC(NC5CC5)CC4)c4cn(C)nc34)nc2c(C)n1	MYB mRNA	6.00 to 7.00
CCN[C@@H]1CCN(c2cc(O)c(C(=O)Nc3cc(F)c4nn(C)cc4c3)c3nn(C)cc23)C1	MYB mRNA	> 7.00
COc1nc2nc(C)cn2cc1NC(=O)c1c(F)cc(N2CCC(NC3CC3)CC2)c2cn(C)nc12	MYB mRNA	> 7.00
COc1cc2nn(C)cc2cc1NC(=O)c1c(C2CC2)cc(N2CCC(NC3CC3)CC2)c2cn(C)nc12	MYB mRNA	< 5.00

In: Provide one value: measured pIC50 of `COc1cc2nn(C)cc2cc1NC(=O)c1ccc(N2CCN(C3CNC3)CC2)c2cn(C)nc12`
Out: 6.00 to 7.00

In: Provide one value: measured pIC50 of `COc1ncccc1NC(=O)c1c(F)cc(N2CCC(NC3CC3)CC2)c2cn(C)nc12`
Out: 5.00 to 6.00

----------
Each entry below lists one item and its recorded pIC50 value.
- Tested on: MYB mRNA
- experiment notes: Gene panel canonical junction qPCR assay, decrease in CJ mRNA, Table 3
- Format: cell-based
- run parameters: decrease in canonical junction (CJ) mRNA, gene panel qPCR, Table 3
pIC50: −log10 of the molar value.

Sample answers from the record:
molecule	readout label	value reported
COc1cc2nn(C)cc2cc1NC(=O)c1ccc(N2CCC(NC3CC3)CC2)c2c(C)n(C)nc12	pIC50	6.00 to 7.00
CCNC1CCN(c2ccc(C(=O)Nc3cc(Oc4ccccc4C#N)c4nc(C)cn4c3)c3nn(C)cc23)CC1	pIC50	< 5.00
CNC1CCC(Oc2ccc(C(=O)Nc3cc4cn(C)nc4cc3OC)c3nn(C)cc23)CC1 (stereo not shown)	pIC50	< 5.00

In: Provide one value: measured pIC50 of Cc1cn2cc(NC(=O)c3ccc(N4CCCC(OC5CNC5)C4)c4cn(C)nc34)nc2c(C)n1 (stereo not shown)
Out: < 5.00

----------
- Tested on: MYB mRNA
- experiment notes: Splicing RT-qPCR assay, canonical (CJ) and alternative (AJ) junction mRNA, K562 cells
- Type: cell-based
- run parameters: Homo sapiens, K562.3 cells, 24 hours, read-out: MYB AJ (AC50, increase in AJ mRNA)
readout label: AC50

Sample answers from the record:
compound	AC50
CCNC1CCN(c2ccc(C(=O)Nc3cc(F)c4nc(C(C)C)cn4c3)c3nn(C)cc23)CC1 [Compound 177]	> 10 µM
CCNC1CCN(c2ccc(C(=O)Nc3cc(F)c4nc(C)oc4c3)c3nn(C)cc23)CC1 [Compound 200]	< 0.1 µM
CCNC1CCN(c2ccc(C(=O)Nc3cc(F)c4nc(COC)cn4c3)c3nn(C)cc23)CC1 [Compound 284]	1 to 10 µM
CCNC1CCN(c2ccc(C(=O)Nc3cc(F)c4nn(C)cc4c3)c3nn(C)cc23)CC1 [Compound 182]	0.1 to 1 µM
CCNC1CCN(c2ccc(C(=O)Nc3cc4cn(C)nc4cc3O)c3[nH]ccc23)CC1 [Compound 190]	> 10 µM

In: Look up MYB mRNA data: AC50 of Cc1cn2cc(NC(=O)c3ccc(N4CCC(NC5CC5)CC4)c4cc(C)nn34)cc(F)c2n1 [Compound 209] , then report it.
Out: < 0.1 µM

In: Look up MYB mRNA data: AC50 of Cc1cn2cc(NC(=O)c3ccc(N4CCNC(C(F)F)C4)c4cn(C)nc34)cc(F)c2n1 (stereo not drawn) [Compound 249] , then report it.
Out: 0.1 to 1 µM

In: Look up MYB mRNA data: AC50 of Cc1cn2cc(NC(=O)c3ccc(N4CC[C@@H](NCC56CC(CO5)C6)C4)c4cn(C)nc34)cc(F)c2n1 [Compound 124] , then report it.
Out: 0.1 to 1 µM

In: Look up MYB mRNA data: AC50 of CCNC1CCN(c2ccc(C(=O)Nc3cc(F)c4nc(C)cn4c3)c3[nH]ncc23)CC1 [Compound 266] , then report it.
Out: 0.1 to 1 µM

In: Look up MYB mRNA data: AC50 of CN[C@@H]1CCN(c2ccc(C(=O)Nc3cc(F)c4nc(C)cn4c3)c3nn(C)cc23)[C@@H]1C (single isomer, unassigned) [Compound 153] , then report it.
Out: < 0.1 µM

In: Look up MYB mRNA data: AC50 of Cc1cn2cc(NC(=O)c3ccc(N4CCC(NC5CC5)CC4)c4cn(C)nc34)nc2c(C)n1 [Compound 297] , then report it.
Out: 0.1 to 1 µM

In: Look up MYB mRNA data: AC50 of Cc1cn2cc(NC(=O)c3ccc(C4CCC(NC5CC5)CC4)c4cn(C)nc34)cc(F)c2n1 (stereo not drawn) [Compound 192] , then report it.
Out: 0.1 to 1 µM

----------
- System: MYB mRNA
- experiment notes: Gene panel canonical junction qPCR assay, decrease in CJ mRNA, Table 3
- Type: cell-based
- run parameters: decrease in canonical junction (CJ) mRNA, gene panel qPCR, Table 3
readout label: IC50

Sample answers from the record:
compound	experimental system	readout label	value reported
COc1cc2nn(C)cc2cc1C#Cc1c(F)cc(N2CCC(NC3CC3)CC2)c2cn(C)nc12	MYB mRNA	IC50	1 to 10 µM
Cn1cc2cc(NC(=O)c3c(F)cc(N4CCC(NC5CC5)CC4)c4cn(C)nc34)c(OC3CC3)cc2n1	MYB mRNA	IC50	> 10 µM
CNC1CCCC(Oc2ccc(C(=O)Nc3cc4cn(C)nc4cc3OC)c3nn(C)cc23)C1 (stereo not shown)	MYB mRNA	IC50	1 to 10 µM

Next up:
In: Provide one value: measured IC50 of `COc1cc2nn(C)cc2cc1NC(=O)c1ccc(N2CC3(CNCCO3)C2)c2cn(C)nc12`
Out: > 10 µM

----------
- Tested on: HTT mRNA
- experiment notes: Gene panel canonical junction qPCR assay, decrease in CJ mRNA, Table 3
- Format: cell-based
- run parameters: decrease in CJ mRNA levels, canonical junction qPCR, gene panel
readout label: IC50

Sample answers from the record:
molecule	IC50
Cc1cn2cc(NC(=O)c3ccc(N4CCC(NC5CC5)CC4)c4cn(C)nc34)nc2c(CNC2(C)COC2)n1	> 10 µM
COc1nc2c(C(=O)Nc3cc(F)c4nc(C)cn4c3)ccc(N3C[C@H](C)N[C@@H](C)C3)c2s1	0.1 to 1 µM
CCNC1CCN(c2ccc(C(=O)Nc3cc(CC(N)=O)c4nn(C)cc4c3)c3nn(C)cc23)CC1	> 10 µM
COc1nc2c(C(=O)Nc3cc(C#N)c4nc(C)cn4c3)ccc(N3C[C@H](C)N[C@@H](C)C3)c2s1	> 10 µM
CCNC1CCN(c2ccc(C(=O)Nc3cc(CN4CCCC4=O)c4nn(C)cc4c3)c3nn(C)cc23)CC1	> 10 µM

Next up:
In: Provide one value: measured IC50 of Cc1cn2cc(NC(=O)c3ccc(NC(=O)C4CCNC4)c4[nH]cnc34)cc(F)c2n1 (centres unmarked)
Out: 1 to 10 µM
